pIC50: −log10 of the molar value.
Below are pIC50 values for UniProtKB O60674 collected from several publications.

# molecule, pIC50
records = [
    ("C[C@H]1C[C@@H](Nc2c(-c3cccc(CO)n3)cnc3[nH]ccc23)CN(C(=O)CC#N)C1", "≥ 8.00"),
    ("COc1cc(C#N)cc(-c2ncnc(Nc3ccc(N4CCN(C5COC5)CC4)cc3)n2)c1", 6.67),
    ("CC(C)Oc1c(F)cc2cc1COCCCCNC(=O)c1ccc(c(N)c1)-c1ccnc(n1)N2", "6.00 to 7.00"),
    ("C[C@@H](CO)n1cc(Nc2nc(-c3cnn(C4(CC#N)CN(S(C)(=O)=O)C4)c3)c3sccc3n2)cn1", "> 7.30"),
    ("N#Cc1cc(-c2ncnc(Nc3ccc4oc(=O)[nH]c4c3)n2)ccc1OC1CCOCC1", "≤ 6.00"),
]

Prompt: Annotate the molecule "Cn1cc(-c2cc3nccn3c(-c3cnn(C(CC#N)CC#N)c3)n2)cn1" with its measured pIC50.
Response: 7.00 to 8.00

Prompt: Annotate the molecule N#CCC(C1CCCC1)n1cc(-c2ncnc3[nH]cc(Br)c23)c(Br)n1 (centres unmarked) with its measured pIC50.
Response: > 6.00

Prompt: Annotate the molecule "N#CCC1(n2cc(-c3c(C#N)cnc4[nH]ccc34)cn2)CN(C2CCN(C(=O)c3c(F)cc(C#N)cc3F)CC2)C1" with its measured pIC50.
Response: 7.30 to 8.00
